Tested on: FXR:RXRa (NR concentration 270 nM, RXRa partner concentration 90 nM)
Assay: PBM binding z-score (relative to random genomic background probes); higher = stronger binding; sequences stand for … in GC…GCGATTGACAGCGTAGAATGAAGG
Readout: PBM binding z-score

1. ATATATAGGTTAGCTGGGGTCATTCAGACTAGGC; 4.53
2. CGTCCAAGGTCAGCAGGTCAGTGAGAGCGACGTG; 5.85
3. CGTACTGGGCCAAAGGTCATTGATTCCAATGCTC; 4.8
4. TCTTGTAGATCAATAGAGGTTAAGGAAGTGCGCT; 1.25
5. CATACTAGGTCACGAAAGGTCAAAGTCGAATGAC; 7.5
6. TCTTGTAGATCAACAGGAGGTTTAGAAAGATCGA; -0.117
7. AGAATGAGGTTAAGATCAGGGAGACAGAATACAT; 2.07
8. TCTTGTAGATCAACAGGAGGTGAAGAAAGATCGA; 0.155
9. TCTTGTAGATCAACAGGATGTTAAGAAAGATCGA; 0.365
10. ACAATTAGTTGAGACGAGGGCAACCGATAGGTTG; 0.779
11. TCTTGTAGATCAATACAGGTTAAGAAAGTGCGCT; 0.747
12. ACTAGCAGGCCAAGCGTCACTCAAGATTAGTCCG; -0.5
